# assay: budding yeast growth changes without added modifier – OD600, strain BY4716, 24 h, basal condition, primary screen (AID 1173)
# measurementParameters: S. cerevisiae BY4716 growth, OD600, 24 h; higher = more signal, called active from +8 up or from −8 down
Classification by z-score follows these ranges: low value (below -0.4), medium value (-0.4 to below 0.4), high value (0.4 or more)

QUERY: Band of "O=C1C[C@@](C(=O)NC2CC2)(c2ccc([N+](=O)[O-])cc2)[C@@H](c2ccc(CO)cc2)N1C1CCCCC1" ?
RESULT: low value

QUERY: Pick a category. Item: "COCCOC(=O)N1C(=O)[C@@]2(c3cc(C#CCC(C(=O)OC)C(=O)OC)ccc31)[C@H](C(=O)Nc1nc3ccccc3s1)[C@H]1C(=O)O[C@H](c3ccccc3)[C@H](c3ccccc3)N1[C@@H]2c1ccc(OCCO)cc1"
RESULT: high value

QUERY: Assign a bin to "O=C(NCc1ccccc1)[C@@H]1c2ccccc2C(=O)N(Cc2cc(C(F)(F)F)cc(C(F)(F)F)c2)[C@H]1c1ccc(CO)cc1"
RESULT: medium value

---

# targetDesc: Follistatin-related protein 3 (Homo sapiens)
# assay: compounds binding follistatin-related protein 3 – biochemical, small-molecule microarray, 635 nm fluorescence, primary screen (AID 1105);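 further: score merges emission near 667 nm and signal to noise per printed spot across three slides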
# measurementParameters: FSTL3 binding, higher = more signal
Would you please tag the item rule met when its composite z-score is 0.8 or above, and rule not met when it is below?

COCCOC(=O)N1C(=O)[C@@]2(c3cc(C#CCCO)ccc31)[C@H](c1ccc(OCCO)cc1)N1[C@H](c3ccccc3)[C@H](c3ccccc3)OC(=O)[C@H]1[C@@H]2C(=O)N1CCCCCCC1 :: rule met

QUERY: Quick check: does "COC(=O)[C@@]1(Cc2ccc(F)cc2)[C@H]2c3cc(C(=O)N(C)C)n(C)c3C[C@H]2CN1C(=O)c1ccccc1" have composite z-score greater than or equal to 0.8?
RESULT: rule not met

QUERY: Does COc1ccc(C(O)C2C=CC3C(=O)N(c4ccccc4)C(=O)C3N2Nc2ccc([N+](=O)[O-])cc2)c2ccccc12 (stereo unspecified) have a reported composite z-score of at least 0.8?
RESULT: rule met

QUERY: Check this compound for composite z-score at or above 0.8: "COc1ccccc1CN1C(=O)c2ccccc2[C@](Cc2ccccc2I)(C(=O)NCC(C)C)[C@@H]1c1ccc(CO)cc1"
RESULT: rule not met

QUERY: Quick check, composite z-score >= 0.8? "O=C(NCc1ccccc1)[C@@H]1c2ccccc2C(=O)N(Cc2cc(C(F)(F)F)cc(C(F)(F)F)c2)[C@H]1c1ccc(CO)cc1"
RESULT: rule met

QUERY: Would you say "C=CCNC(=O)[C@@H]1[C@H]2C(=O)O[C@H](c3ccccc3)[C@H](c3ccccc3)N2[C@H](c2ccc(OCCO)cc2)[C@@]12C(=O)Nc1ccc(C#CC3(O)CCCCCC3)cc12" shows composite z-score at minimum 0.8?
RESULT: rule met

---

# targetDesc: Fibroblast growth factor 10 (Homo sapiens)
# assay: compounds binding fibroblast growth factor 10 – biochemical, small-molecule microarray, 635 nm fluorescence, primary screen (AID 1102)
# measurementParameters: FGF10 binding, fluorescence 635 nm, higher = more signal
Binning rule for recorded composite z-score: low: < 0.3; middle: ≥ 0.3 and < 0.9; high: ≥ 0.9

COCCOC(=O)N1C(=O)[C@@]2(c3cc(C#CCC(C(=O)OC)C(=O)OC)ccc31)[C@H](c1ccc(O)cc1)N1[C@H](c3ccccc3)[C@H](c3ccccc3)OC(=O)[C@H]1[C@@H]2C(=O)Nc1nc2ccccc2s1 :: high
CN1C(=O)C2C(C3CC3)C=C3CN(Cc4cccc(Cl)c4)[C@@H]([C@@H](O)Cc4ccccc4)C3C2C1=O (some centres undefined) :: high
CCOC(=O)C[C@H]1[C@H](OC(=O)c2ccccc2-c2ccccc2)[C@@H](NC(=O)C2CCCCC2)c2cc(OCCCO)ccc2N1C(=O)c1ccc2ccccc2n1 :: middle
CC(C)C(O)C1C=CC2C(=O)NC(=O)C2N1Nc1ccccn1 (centres undefined) :: low
CC(C)(C)N1CC=CC23O[C@@H]4/C=C\CCCOC(=O)C4[C@H]2C(=O)N(CCCO)[C@@H]3C1=O (some centres undefined) :: low

QUERY: Exam item: assign "[N-]=[N+]=NCc1ccccc1[C@@H]1OC(c2ccc(OCCCO)cc2)=N[C@]1(Cc1ccccc1N=[N+]=[N-])C(=O)O" to the correct category.
RESULT: high

QUERY: # classify by composite z-score band: CCC(CC)C(O)C1C=CC2C(=O)N(c3ccccc3)C(=O)C2N1Nc1ccccc1F (centres undefined)
RESULT: middle

QUERY: Bin? "O=C1O[C@H](c2ccccc2)[C@H](c2ccccc2)N2[C@H]1[C@@H](C(=O)O)[C@]1(C(=O)Nc3ccc(C#CCCO)cc31)[C@H]2c1ccc(OCCO)cc1"
RESULT: high

QUERY: Please indicate the class for NC(=O)N1C(=O)C2C(C1=O)C1C=C(CCCO)C2C(c2ccc(CN3CCCC3)cc2)N1Cc1sc2ccccc2c1Cl (centres undefined) based on its composite z-score.
RESULT: middle

QUERY: Consider "COCCCN1C(=O)[C@@]2(c3ccc([N+](=O)[O-])cc3)CC(=O)N(CC34CC5CC(CC(C5)C3)C4)[C@@H]2c2ccc(CO)cc21" . To which composite z-score class does it belong?
RESULT: middle

QUERY: Pick a category. Item: "CCOC(=O)C[C@H]1[C@H](OC(=O)c2cc3ccccc3oc2=O)[C@@H](NC(=O)CC(C)C)c2cc(OCCCO)ccc2N1C(=O)Cc1ccc(OC)cc1"
RESULT: high

QUERY: Please indicate the class for CC(C)(C)N1CC=CC23O[C@@H]4/C=C\CCCOC(=O)C4[C@H]2C(=O)N(CCCCCO)[C@@H]3C1=O (some centres undefined) based on its composite z-score.
RESULT: low

QUERY: # bin lookup: classify "O=C1O[C@@H](c2ccccc2)[C@@H](c2ccccc2)N2[C@@H](c3ccc(OCCO)cc3)[C@]3(C(=O)Nc4ccc(C#CC5(O)CCCCCC5)cc43)[C@@H](C(=O)O)[C@H]12" by its composite z-score
RESULT: middle

---

Listed next: entries and their corresponding composite Z-score.
# assay: probe aXIP binding to arrayed compounds – biochemical, NeuroSMM set, 635/667 nm fluorescence, primary screen (AID 1119);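 further: probe is the protein aXip251-270 applied at 1 µg/mL to compound-printed slides; binding of probe to printed compounds measured as 667 nm fluorescence plus signal to noise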
# measurementParameters: small-molecule microarray, higher = more signal, called active from +8 up or from −8 down
Could you keep your reply to the number by itself?

[N-]=[N+]=Nc1ccccc1[C@@H]1OC(c2ccc(OCCCO)cc2)=N[C@]1(Cc1ccccc1)C(=O)NCCN1CCOCC1 :: 0.0561
C[C@]1(C(=O)O)c2ccccc2C(=O)N(Cc2cc(F)cc(C(F)(F)F)c2)[C@H]1c1ccc(CO)cc1 :: -0.228
CC(C)=C1C(=O)C(c2ccccc2)=C2CN3C(=O)N(CCc4ccccc4)C(=O)[C@]3(C)[C@H]21 :: 0.432
C=CCOC(=O)[C@@H]1[C@H]2C(=O)O[C@H](c3ccccc3)[C@H](c3ccccc3)N2[C@H](c2ccc(OCCOC(=O)[C@H]3C[C@H]4C(=O)N5CCC[C@H]5C(=O)N4[C@H]3c3cccc(OCCO)c3)cc2)[C@@]12C(=O)Nc1ccc(I)cc12 :: 1.17
O=C1O[C@@H](c2ccccc2)[C@@H](c2ccccc2)N2[C@@H](c3ccccc3OCCO)[C@]3(C(=O)Nc4ccc(C#CCCO)cc43)[C@@H](C(=O)NC[C@H](O)c3ccccc3)[C@H]12 :: 0.45

// moving on: another record for composite Z-score
QUERY: Give the reported composite Z-score for this compound. "CCCC[C@H]1C[C@@H]1[C@@H]1N(C(C)=O)[C@H](c2cccc(OC)c2)CC12CC2"
RESULT: 0.797

---

# assay: growth modulation of vineyard yeast isolate – strain RM11-1a, OD600, basal, 24 h, primary screen (AID 1177);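 further: cultures grown under basal conditions with no added stressor; test concentration not given here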
# measurementParameters: S. cerevisiae RM11-1a growth, OD600, 24 h; higher = more signal, called active from +8 up or from −8 down
Quick reference: z-score of the listed items.
Kindly provide the number alone.

O=C1[C@@H]2[C@@H](CC(COc3ccccc3)=C([C@H](O)CCc3ccccc3)[C@@H]2CO)C(=O)N1Cc1ccccc1 :: 1.47
C=C(CCCC)C(=O)CC[C@H](OC(=O)c1ccccc1-c1ccccc1C(=O)O)c1ccc(OCCO)cc1 :: 0.152
C=CCC(OC(C)=O)[C@@H]1[C@@H](N(Cc2ccc(-c3cccc(C(F)(F)F)c3)o2)C(=O)Cc2ccc(F)cc2)c2cc(OCCCO)ccc2N1C(=O)Cc1ccc2ccccc2c1 (some centres not stated) :: -0.245
CCCN1C(=O)[C@@]2(c3ccc([N+](=O)[O-])cc3)CC(=O)N(CC34CC5CC(CC(C5)C3)C4)[C@@H]2c2ccc(CO)cc21 :: -0.664
CC(C)C(=C=CC[C@H](O)c1ccccc1OCCO)C[C@H](O)COCc1ccccc1 :: -0.154

QUERY: State its z-score: "COCCOC(=O)N1C(=O)[C@@]2(c3ccccc31)[C@H](C(=O)N1CCN(c3ncccn3)CC1)[C@H]1C(=O)O[C@H](c3ccccc3)[C@H](c3ccccc3)N1[C@@H]2c1ccccc1OCCO"
RESULT: 2.04

QUERY: Return z-score for the following compound: "CCOC(=O)C[C@H]1[C@H](OC(=O)c2cc3ccccc3oc2=O)[C@@H](NC(=O)CC(C)C)c2cc(OCCCO)ccc2N1C(=O)Cc1ccc(OC)cc1"
RESULT: -0.746
